System under test: UniProtKB Q9UPY5
Sequence (Q9UPY5 1-501): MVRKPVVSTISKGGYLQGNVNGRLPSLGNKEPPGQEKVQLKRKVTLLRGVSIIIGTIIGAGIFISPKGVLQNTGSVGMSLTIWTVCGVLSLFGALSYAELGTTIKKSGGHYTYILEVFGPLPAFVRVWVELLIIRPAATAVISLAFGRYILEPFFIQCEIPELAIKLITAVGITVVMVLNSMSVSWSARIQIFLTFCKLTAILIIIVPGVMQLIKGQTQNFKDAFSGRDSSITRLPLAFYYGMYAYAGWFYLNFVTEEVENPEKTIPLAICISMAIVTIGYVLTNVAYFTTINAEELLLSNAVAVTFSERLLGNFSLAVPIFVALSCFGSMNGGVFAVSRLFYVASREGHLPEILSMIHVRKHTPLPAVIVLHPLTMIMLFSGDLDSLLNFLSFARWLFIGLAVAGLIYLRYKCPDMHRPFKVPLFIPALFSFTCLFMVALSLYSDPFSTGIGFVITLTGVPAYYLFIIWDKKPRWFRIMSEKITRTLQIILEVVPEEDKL
Sequence (P08195 1-529 partner): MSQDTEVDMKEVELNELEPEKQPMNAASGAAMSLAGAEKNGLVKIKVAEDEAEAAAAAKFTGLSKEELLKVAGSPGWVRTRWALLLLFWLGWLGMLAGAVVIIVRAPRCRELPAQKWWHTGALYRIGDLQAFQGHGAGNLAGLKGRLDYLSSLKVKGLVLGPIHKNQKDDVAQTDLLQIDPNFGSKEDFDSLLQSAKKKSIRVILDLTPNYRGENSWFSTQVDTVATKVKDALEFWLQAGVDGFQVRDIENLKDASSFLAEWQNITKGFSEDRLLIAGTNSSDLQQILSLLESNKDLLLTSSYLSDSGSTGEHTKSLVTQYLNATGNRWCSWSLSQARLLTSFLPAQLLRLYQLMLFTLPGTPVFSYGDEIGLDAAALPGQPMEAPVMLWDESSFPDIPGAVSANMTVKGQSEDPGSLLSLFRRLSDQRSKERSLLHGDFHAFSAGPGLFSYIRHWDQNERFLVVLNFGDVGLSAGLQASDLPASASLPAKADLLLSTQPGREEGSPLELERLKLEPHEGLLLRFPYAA
Measurement type: IC50 (nM)
Please respond with the number in nM and leave the unit unwritten.

Query block: Provide IC50, recorded with UniProtKB Q9UPY5, of `CC(C)Oc1ccc(CN2CCNCC2)cc1-n1c(CN2CCN(C(=O)COc3ccc(Cl)cc3)CC2)nc2ccccc2c1=O`
Result block: 800

Query block: Provide IC50, recorded with UniProtKB Q9UPY5, of `CC(=O)c1ccc(OC(C)C)c(-n2c(CN3CCN(C(=O)COc4ccc(Cl)cc4)CC3)nc3ccccc3c2=O)c1`
Result block: 30

Query block: Provide IC50, recorded with UniProtKB Q9UPY5, of `CC(C)Oc1ccc(C(=O)Cn2ccnc2)cc1-n1c(CN2CCN(C(=O)COc3ccc(Cl)cc3)CC2)nc2ccccc2c1=O`
Result block: 30

Query block: Provide IC50, recorded with UniProtKB Q9UPY5, of `CC(C)Oc1ccc(C=O)cc1-n1c(CN2CCN(C(=O)COc3ccc(Cl)cc3)CC2)nc2ccccc2c1=O`
Result block: 60

Query block: Provide IC50, recorded with UniProtKB Q9UPY5, of `C=CCN1CCN(CC(=O)c2ccc(OC(C)C)c(-n3c(CN4CCN(C(=O)COc5ccc(Cl)cc5)CC4)nc4ccccc4c3=O)c2)CC1`
Result block: 10

The measured values listed here are drawn from patent US9938245B2.
